tested on: Haemophilus influenzae; assay: Antibacterial activity against Haemophilus influenzae ATCC 49247 by microbroth dilution method; assay type: functional
valueType: log10 MIC (log10 of the value in µg/mL)
Annotation: log10 of MIC, µg/mL basis.

Illustrative cases are given below, each with its answer.
O=C1COc2ccc(-c3ccc(N4C[C@H](CNC(=O)C(F)F)OC4=O)cc3F)cc2N1; -0.30
CC(=O)NC[C@H]1CN(c2ccc(-c3ccc4c(c3)NC(=O)CO4)c(F)c2)C(=O)O1; -0.60
Cl.NC[C@H]1CN(c2ccc(-c3ccc4c(c3)NC(=O)CO4)c(F)c2)C(=O)O1; 0.60
O=C1COc2ccc(-c3ccc(N4C[C@H](CO)OC4=O)cc3F)cc2N1; -0.30
O=C1COc2cc(-c3ccc(N4C[C@H](CO)OC4=O)cc3F)ccc2N1; -0.60

Go through the items and report each one's log10 MIC.
1. O=C1O[C@@H](CO)CN1c1ccc(-c2ccc3c(c2)NC(=O)C2(CC2)O3)c(F)c1
2. Cc1nc2ccc(-c3ccc(N4C[C@H](CO)OC4=O)cc3F)cc2c(=O)[nH]1
3. CC1(C)Oc2ccc(-c3ccc(N4C[C@H](CO)OC4=O)cc3F)cc2NC1=O
4. CCC(=O)NC[C@H]1CN(c2ccc(-c3ccc4c(c3)NC(=O)CO4)c(F)c2)C(=O)O1
5. O=C1COc2ccc(-c3ccc(N4C[C@H](CNC(=O)C5CCC5)OC4=O)cc3F)cc2N1
6. CS(=O)(=O)NC[C@H]1CN(c2ccc(-c3ccc4c(c3)NC(=O)CO4)c(F)c2)C(=O)O1
7. O=C1O[C@@H](CO)CN1c1ccc(-c2ccc3oc(=O)[nH]c3c2)c(F)c1
8. O=C1NCCOc2ccc(-c3ccc(N4C[C@H](CO)OC4=O)cc3F)cc21

1. -0.30
2. -0.30
3. -0.90
4. -0.60
5. 0.00
6. -0.30
7. 0.60
8. 0.00

Go through the items and report each one's log10 MIC.
1. O=C1COc2ccc(-c3ccc(N4C[C@H](CNC(=O)C5CC5)OC4=O)cc3F)cc2N1
2. O=C1O[C@@H](CO)CN1c1ccc(-c2ccc3c(c2)OCCO3)c(F)c1
3. C[C@H]1COc2c(N3CCN(C)CC3)c(F)cc3c(=O)c(C(=O)O)cn1c23.C[C@H]1COc2c(N3CCN(C)CC3)c(F)cc3c(=O)c(C(=O)O)cn1c23.O [LEVOFLOXACIN]
4. O=C1O[C@@H](CO)CN1c1ccc(-c2cnc3ccc(=O)[nH]c3c2)c(F)c1
5. CC(=O)NC[C@H]1CN(c2ccc(N3CCOCC3)c(F)c2)C(=O)O1 [LINEZOLID]

1. 0.00
2. 0.90
3. -1.22
4. -0.30
5. 0.60

---

molecular target: CYP2C9 (Homo sapiens, UniProt P11712); experiment: Inhibition of CYP2C9 (unknown origin) at 10 uM; assay type: ADME
Sequence (P11712 whole entry): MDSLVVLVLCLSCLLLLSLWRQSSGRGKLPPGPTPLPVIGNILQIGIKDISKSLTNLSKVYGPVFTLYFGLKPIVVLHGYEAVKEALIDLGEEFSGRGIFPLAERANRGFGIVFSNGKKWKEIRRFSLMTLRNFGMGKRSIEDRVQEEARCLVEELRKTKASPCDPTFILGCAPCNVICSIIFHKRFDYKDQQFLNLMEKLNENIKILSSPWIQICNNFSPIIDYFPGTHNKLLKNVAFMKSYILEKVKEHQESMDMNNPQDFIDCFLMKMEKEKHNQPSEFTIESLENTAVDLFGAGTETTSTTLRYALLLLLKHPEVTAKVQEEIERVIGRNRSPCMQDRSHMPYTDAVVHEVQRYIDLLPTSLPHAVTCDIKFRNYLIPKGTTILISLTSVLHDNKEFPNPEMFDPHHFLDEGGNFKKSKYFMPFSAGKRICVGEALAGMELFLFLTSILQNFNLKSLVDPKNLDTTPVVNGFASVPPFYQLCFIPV
What inhibition at 10 µM was measured for each of the following?
Give bare numbers, in %.

O=C1COc2ccc(-c3ccc(N4C[C@H](CO)OC4=O)cc3F)cc2N1; 12

--- query ---
What value of inhibition at 10 µM has been reported for the following molecule? `CC(=O)NC[C@H]1CN(c2ccc(-c3ccc4c(c3)NC(=O)CO4)c(F)c2)C(=O)O1`
13

---

What solubility was measured for each of the following?
assay: Solubility in pH 6.8 buffer; format: physicochemical
One number for each entry, in µg/mL.

CC(=O)NC[C@H]1CN(c2ccc(-c3ccc4c(c3)NC(=O)CO4)c(F)c2)C(=O)O1; 15

--- query ---
What value of solubility has been reported for the following molecule? `O=C1COc2ccc(-c3ccc(N4C[C@H](CO)OC4=O)cc3F)cc2N1`
5.2

---

What MIC was measured for each of the following?
tested on: Staphylococcus aureus; experiment: Antibacterial activity against Staphylococcus aureus ATCC 33591 by microbroth dilution method; format: functional
Give bare numbers, in µg/mL.

O=C1COc2ccc(-c3ccc(N4C[C@H](CNC(=O)C(F)F)OC4=O)cc3F)cc2N1; 0.5
O=C1COc2ccc(-c3ccc(N4C[C@H](CO)OC4=O)cc3F)nc2N1; 0.125
CC(=O)NC[C@H]1CN(c2ccc(-c3ccc4c(c3)NC(=O)CO4)c(F)c2)C(=O)O1; 0.5
C[C@H]1COc2c(N3CCN(C)CC3)c(F)cc3c(=O)c(C(=O)O)cn1c23.C[C@H]1COc2c(N3CCN(C)CC3)c(F)cc3c(=O)c(C(=O)O)cn1c23.O [LEVOFLOXACIN]; 0.25

Go through the items and report each one's MIC.
1. O=C(CO)NC[C@H]1CN(c2ccc(-c3ccc4c(c3)NC(=O)CO4)c(F)c2)C(=O)O1
2. CS(=O)(=O)NC[C@H]1CN(c2ccc(-c3ccc4c(c3)NC(=O)CO4)c(F)c2)C(=O)O1
3. CC1(C)Oc2ccc(-c3ccc(N4C[C@H](CO)OC4=O)cc3F)cc2NC1=O
4. O=C1COc2cc(-c3ccc(N4C[C@H](CO)OC4=O)cc3F)ccc2N1
5. O=C1Cc2ccc(-c3ccc(N4C[C@H](CO)OC4=O)cc3F)cc2N1
6. O=C1COc2ccc(-c3ccc(N4C[C@H](CNC(=O)C5CCC5)OC4=O)cc3F)cc2N1
7. O=C1O[C@@H](CO)CN1c1ccc(-c2cnc3ccc(=O)[nH]c3c2)c(F)c1
8. O=C1NCCOc2ccc(-c3ccc(N4C[C@H](CO)OC4=O)cc3F)cc21

1: 1; 2: 1; 3: 1; 4: 0.5; 5: 32; 6: 0.5; 7: 0.25; 8: 1

---

target: CYP3A4 (Homo sapiens, UniProt P08684); experiment: Inhibition of CYP3A4 (unknown origin) at 10 uM; assay type: ADME
Sequence (P08684 whole entry): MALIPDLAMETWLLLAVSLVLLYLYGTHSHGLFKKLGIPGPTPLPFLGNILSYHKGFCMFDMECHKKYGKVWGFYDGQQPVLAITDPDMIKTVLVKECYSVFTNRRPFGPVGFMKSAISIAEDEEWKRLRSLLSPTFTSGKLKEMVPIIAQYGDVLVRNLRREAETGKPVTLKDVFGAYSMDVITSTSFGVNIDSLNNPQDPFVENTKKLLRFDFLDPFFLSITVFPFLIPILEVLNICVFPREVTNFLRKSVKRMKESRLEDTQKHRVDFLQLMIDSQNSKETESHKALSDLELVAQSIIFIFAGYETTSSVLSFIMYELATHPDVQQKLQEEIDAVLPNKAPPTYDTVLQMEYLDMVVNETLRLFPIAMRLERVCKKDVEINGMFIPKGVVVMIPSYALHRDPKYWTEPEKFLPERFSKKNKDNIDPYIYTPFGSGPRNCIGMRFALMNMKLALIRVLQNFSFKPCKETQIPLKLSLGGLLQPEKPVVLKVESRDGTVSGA
What inhibition at 10 µM was measured for each of the following?
Answers are plain numbers, in %.

Go through the items and report each one's inhibition at 10 µM.
1. O=C1COc2ccc(-c3ccc(N4C[C@H](CO)OC4=O)cc3F)cc2N1
2. CC(=O)NC[C@H]1CN(c2ccc(-c3ccc4c(c3)NC(=O)CO4)c(F)c2)C(=O)O1

[0, 0]

---

What log10 of MIC was measured for each of the following?
test system: Staphylococcus aureus; assay: Antibacterial activity against Staphylococcus aureus ATCC 33591 by microbroth dilution method; assay type: functional
Annotation: log10 of MIC, µg/mL basis.

Cl.NC[C@H]1CN(c2ccc(-c3ccc4c(c3)NC(=O)CO4)c(F)c2)C(=O)O1; 1.20
CC(=S)NC[C@H]1CN(c2ccc(-c3ccc4c(c3)NC(=O)CO4)c(F)c2)C(=O)O1; -0.90
COC(=O)NC[C@H]1CN(c2ccc(-c3ccc4c(c3)NC(=O)CO4)c(F)c2)C(=O)O1; -0.90
O=C1CCOc2ccc(-c3ccc(N4C[C@H](CO)OC4=O)cc3F)cc2N1; -0.30
O=C1COc2c(cccc2-c2ccc(N3C[C@H](CO)OC3=O)cc2F)N1; 0.60
O=C1O[C@@H](CO)CN1c1ccc(-c2ccc3c(c2)OCCO3)c(F)c1; 1.51
O=C1O[C@@H](CO)CN1c1ccc(-c2ccc3c(c2)NC(=O)C2(CC2)O3)c(F)c1; -0.30
O=C1O[C@@H](CO)CN1c1ccc(-c2ccc3oc(=O)[nH]c3c2)c(F)c1; 1.51
Cc1nc2ccc(-c3ccc(N4C[C@H](CO)OC4=O)cc3F)cc2c(=O)[nH]1; -0.30
CCC(=O)NC[C@H]1CN(c2ccc(-c3ccc4c(c3)NC(=O)CO4)c(F)c2)C(=O)O1; -0.60

Go through the items and report each one's log10 of MIC.
1. CC(=O)NC[C@H]1CN(c2ccc(N3CCOCC3)c(F)c2)C(=O)O1 [LINEZOLID]
2. O=C1COc2ccc(-c3ccc(N4C[C@H](CNC(=O)C5CC5)OC4=O)cc3F)cc2N1

1. 0.00
2. 0.00

Given the entry `O=C1COc2ccc(-c3ccc(N4C[C@H](CO)OC4=O)cc3F)cc2N1` , what log10 of MIC was observed with Staphylococcus aureus?
-0.30
